Reported kon is given for each of the following binders.
molecular target: T1, Human VEGF-A 165 (human, UniProt P15692 207-395); assay: SPR (Biacore), antibody captured by anti-human Fc, hVEGF165 as analyte
T1 construct: Recombinant human VEGF165; also called huVEGF-A165; hVEGF165
T1 sequence (P15692 other isoform, or with tags, fused parts or gaps): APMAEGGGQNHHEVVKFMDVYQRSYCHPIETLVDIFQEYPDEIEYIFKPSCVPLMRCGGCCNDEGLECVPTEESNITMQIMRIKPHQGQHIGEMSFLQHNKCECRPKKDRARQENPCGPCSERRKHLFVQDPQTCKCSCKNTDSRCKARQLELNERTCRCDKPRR

BINDER	UNIT_OF_MEASUREMENT	kon
chBEW-9A8 (antibody, human IgG1, kappa, L234A L235A, V domains shown) VH: QIQLVQSGPELKKPGESVKISCKASGYTFTNYGMYWVKQAPGQGLQYMGWINTETGKPIYADDFKGRFVFFLETSASTAYLQINNLKNEDMATFFCARVDYDGSFWFAYWGQGTLVTVSS VL: DTVLTQSPALAVSPGERVSISCRASESVSTVIHWYQQKPGQQPKLLIHGASNLESGVPARFSGSGSGTDFTLTIDPVEADDTATYFCQQHWNDPPTFGAGTKLEMKR	M⁻¹ s⁻¹	8.9e+06
chBEW-1B10 (antibody, human IgG1, kappa, L234A L235A, V domains shown, also called chBEW-1B10-B9-C3) VH: EVQLVESGGGLVQPGRSLKLSCAASGFSFSKYDMAWFRQTPTKGLEWVASITTSGVGTYYRDSVKGRFTVSRDNAKSTLYLQMDSLRSEDTATYYCARGYGAMDAWGQGTSVTVSS VL: DIQMTQSPASLSASLEEIVTITCKASQDIDDYLSWYQQKPGKSPQLVIYAATRLADGVPSRFSGSGSGTQYSLKISRLQVDDSGIYYCLQSSSTPWTFGGGTNLELKR	M⁻¹ s⁻¹	5.5e+06
chBED-4G10-C8 (antibody, human IgG1, kappa, L234A L235A, V domains shown) VH: QVQLQQSGTELVKPGSSVKISCKASGYTFTSNYMHWIRQQPGNGLEWIGWIYPGDGDTNYNHNFNGKATLTADKSSSTAYMQLSSLTSEDFAVYFCASSTRAIPGWFTYWGQGTLVTVSS VL: DTVLTQSPALAVSPGERVSISCWASESVSTLMHWYQQKLGQQPKLLIYGASNLESGVPARFRGSGSGTDFTLTIDPVEADDTATYFCQQSWSDPYTFGAGTKLELKR	M⁻¹ s⁻¹	1e+07
chBEW-10H2 (antibody, human IgG1, kappa, L234A L235A, V domains shown, also called chBEW-10H2-B9) VH: QIQLVQSGPELKKPGESVKISCKASGYSFTNFGLYWVKQAPGQGLQYMGWIDTETGKPTYADDFRGRFVFFLETSASTAYLQINNLKNEDMATYFCARVYGYPSWYFDFWGPGTMVTVSS VL: DIQMTQSPASLSTSLEEIVTITCQASQDIDNYLSWYQQKPGKSPQLLIHSATSLADGVPSRFSGSRSGTQFSLKIHRLQVEDTGIYYCLQHFFPPWTFGGGTKLELKR	M⁻¹ s⁻¹	2.8e+07
chBEW-6C2 (antibody, human IgG1, kappa, L234A L235A, V domains shown) VH: EVQLVESGGGLVQPGSSLKLSCAASGFTFSYYGMHWIRQAPKKGLEWMALIYYDSSKMYYADSVKGRFTISRDNSKNTLYLEMNSLRSEDTAMYYCAAGGTAPVYWGQGVMVTVSS VL: NIQLTQSPSLLSASVGDRVTLSCKGSQNIANYLAWYQQKLGEAPKLLIYNTDSLQTGIPSRFSGSGSGTDYTLTISSLQPEDVATYFCYQSNNGYTFGAGTKLELRR	M⁻¹ s⁻¹	4.9e+06
